- measuredTarget: human wildtype CFTR (Homo sapiens, UniProt P13569)
- Construct: expressed in transfected cells; host or cells: Fischer rat thyroid (FRT) cells, stably transfected, co-expressing YFP-H148Q
- assayInfo: YFP fluorescence assay of CFTR-mediated I− transport in FRT cells
- Format: cell-based
- testConditions: relative to CFTRinh-172 = 1.0
observable: relative potency (CFTR inhibitory activity)

{"compound": "O=C(O)c1ccccc1C=C1SC(=S)N(c2ccccc2C(F)(F)F)C1=O [a=2, b=2]", "resultValue": 0.69}
{"compound": "O=C(O)c1ccccc1C=C1SC(=S)N(c2ccccc2C(F)(F)F)C1=O [4, 4]", "resultValue": 0.56}
{"compound": "O=C(O)c1ccccc1C=C1SC(=S)N(c2ccccc2C(F)(F)F)C1=O [3, 2]", "resultValue": 0.74}
{"compound": "O=C(O)c1ccccc1C=C1SC(=S)N(c2ccccc2C(F)(F)F)C1=O [2, 3]", "resultValue": 0.70}
{"compound": "O=C(O)c1ccccc1C=C1SC(=S)N(c2ccccc2C(F)(F)F)C1=O [3, 3]", "resultValue": 0.90}
{"compound": "O=C(O)Oc1ccc(/C=C2\\SC(=O)N(c3cccc(C(F)(F)F)c3)C2=S)cc1", "resultValue": 0.3}
{"compound": "O=C1S/C(=C\\c2ccc(O)c(O)c2)C(=S)N1c1cccc(C(F)(F)F)c1", "resultValue": 0.2}
{"compound": "O=C(O)c1ccccc1C=C1SC(=S)N(c2ccccc2C(F)(F)F)C1=O [4, 2]", "resultValue": 0.67}
{"compound": "O=C(O)c1ccccc1C=C1SC(=S)N(c2ccccc2C(F)(F)F)C1=O [4, 3]", "resultValue": 0.64}
{"compound": "O=C(O)c1ccccc1C=C1SC(=S)N(c2ccccc2C(F)(F)F)C1=O [2, 4]", "resultValue": 0.66}
